Cited source for all entries: PubChem BioAssay

Measured fold change of individual entries
- ASSAY SUMMARY: viability loss with induced miR-34 in A549 – imaging, A549 dox-inducible miR-34, nuclei and caspase counts, primary screen (AID 1347080)
- PROTOCOL CONDITIONS: A549 miR-34 inducible, Hoechst nuclei count, 48 h; hits give low values; cell number ratio, induced over uninduced
QUANTITY NAME: fold change

INSERT INTO measurements (compound, reported_measurement) VALUES
  ('COCCCOc1cc(C[C@@H](C[C@H](N)[C@@H](O)C[C@H](C(=O)NCC(C)(C)C(N)=O)C(C)C)C(C)C)ccc1OC', 0.948),
  ('C[C@@H]1CN(CCCn2c3ccccc3c3ccccc32)C[C@H](C)N1', 0.959),
  ('Cc1onc(-c2ccccc2)c1C(=O)N[C@@H]1C(=O)N2[C@@H]1SC(C)(C)[C@@H]2C(=O)O', 0.877),
  ('NCC1CCC(C(=O)Oc2ccc(CCC(=O)O)cc2)CC1 (stereo not given)', 0.97),
  ('CC1(C)O[C@@H]2C[C@H]3[C@@H]4C[C@H](F)C5=CC(=O)CC[C@]5(C)[C@H]4[C@@H](O)C[C@]3(C)[C@]2(C(=O)CO)O1', 0.775),
  ('CN1[C@@H]2CC[C@H]1CC(OC(=O)C(O)c1ccccc1)C2 (stereo not given in full)', 0.916),
  ('COc1ccc(C2C(=O)c3ccccc3C2=O)cc1', 0.879),
  ('CCn1cc(C(=O)O)c(=O)c2cnc(N3CCNCC3)nc21', 0.922),
  ('C=C[C@@]1(C)CC(=O)[C@]2(O)[C@@]3(C)[C@@H](O)CCC(C)(C)[C@@H]3[C@H](O)[C@H](OC(C)=O)[C@@]2(C)O1', 0.943),
  ('O=C(COc1ccc(Cl)cc1)N1CCN(Cc2ccc3c(c2)OCO3)CC1', 0.875),
  ('CC(=O)OCC(=O)[C@@]1(O)[C@H](C)C[C@H]2[C@@H]3CCC4=CC(=O)C=C[C@]4(C)[C@@]3(F)[C@@H](O)C[C@@]21C', 0.93),
  ('CO/N=C1\CN(c2nc3c(cc2F)c(=O)c(C(=O)O)cn3C2CC2)CC1CN (stereo not given)', 0.847),
  ('Nc1ncnc2c1ncn2[C@@H]1O[C@H](COP(=O)(O)O)[C@@H](O)[C@H]1O', 0.848),
  ('CC[C@]12CCCN3CCc4c(n(c5ccccc45)C(=O)C1)[C@@H]32', 0.89),
  ('CC(C)[C@H](N)C(=O)OCCOCn1cnc2c(=O)[nH]c(N)nc21', 0.847),
  ('CC[N+](C)(CC)CCOC(=O)C(O)(c1ccccc1)C1CCCCC1 (stereo not given)', 0.958),
  ('CCOC(=O)C1=C(C)NC(C)=C(C(=O)OCC)C1c1ccccc1/C=C/C(=O)OC(C)(C)C', 0.814),
  ('CN(C)CC[C@@H](c1ccc(Cl)cc1)c1ccccn1', 1.01),
  ('Nc1c2c(nc3c1CCC3)CCCC2', 1.06),
  ('O=C(O)c1ccc(S(=O)(=O)N(Cl)Cl)cc1', 0.899);

---

- ASSAY SUMMARY: viability loss in pontine glioma line – cell-based, SU-DIPG-XXV, MIPE5.0, CellTiter-Glo, qHTS, dose response (AID 1347065);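 note: cells exposed to compound for 48 hours before ATP readout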
- PROTOCOL CONDITIONS: CellTiter-Glo ATP luminescence
Records with an inconclusive call do not appear. Calls of active or inactive are those of the source. The limit is not given here; nearly all actives have AC50 up to about 26 µM.
Outcome codes: Y (active), N (inactive)

INSERT INTO results (compound, class_label) VALUES
  ('Cc1ccc(S(=O)(=O)NC(=O)NN2CC3CCCC3C2)cc1 (stereo unspecified)', 'N'),
  ('O=C(NCCO[N+](=O)[O-])c1cccnc1', 'N'),
  ('CO[C@@]12[C@H](COC(N)=O)C3=C(C(=O)C(C)=C(N)C3=O)N1C[C@@H]1N[C@@H]12', 'Y'),
  ('CCN(CC)CCOc1ccc(/C(=C(\Cl)c2ccccc2)c2ccccc2)cc1', 'Y'),
  ('CC(=O)O[C@]1(C(C)=O)CC[C@H]2[C@@H]3C=C(Cl)C4=CC(=O)[C@@H]5C[C@@H]5[C@]4(C)[C@H]3CC[C@@]21C', 'Y'),
  ('Oc1ccc(C2CNCCc3c2cc(O)c(O)c3Cl)cc1 (stereo unspecified)', 'N'),
  ('COc1cc2c(Nc3ccc(Br)cc3F)ncnc2cc1OCC1CCN(C)CC1', 'Y'),
  ('COc1ccc(C2CNC(=O)C2)cc1OC1CCCC1 (stereo unspecified)', 'N'),
  ('COC1=C(OC)C(=O)C(CCCCCCCCCCO)=C(C)C1=O', 'N'),
  ('Cn1c(=O)c2c(ncn2CC(O)CO)n(C)c1=O (stereo unspecified)', 'N'),
  ('CCCN[C@H]1CCc2nc(N)sc2C1', 'N'),
  ('CCCc1nc(C)c2c(=O)[nH]c(-c3cc(S(=O)(=O)N4CCN(CC)CC4)ccc3OCC)nn12', 'N'),
  ('C#C[C@]1(O)CC[C@H]2[C@@H]3CCc4cc(O)ccc4[C@H]3CC[C@@]21C', 'Y'),
  ('NC(=O)c1ncn([C@@H]2O[C@H](CO)[C@@H](O)[C@H]2O)n1', 'N'),
  ('NCCS(=O)(=O)O', 'N'),
  ('CCCCc1ccc2nc(NC(=O)OC)[nH]c2c1', 'Y'),
  ('NCC1CCC(C(=O)O)CC1 (stereo unspecified)', 'N'),
  ('C1CCC(C(CC2CCCCN2)C2CCCCC2)CC1 (stereo unspecified)', 'Y'),
  ('CCCCN(CCCC)CCC(O)c1cc2c(Cl)cc(Cl)cc2c2cc(C(F)(F)F)ccc12 (stereo unspecified)', 'Y'),
  ('CC1(C)O[C@@H]2C[C@H]3[C@@H]4C[C@H](F)C5=CC(=O)C=C[C@]5(C)[C@@]4(F)[C@@H](O)C[C@]3(C)[C@]2(C(=O)CO)O1', 'N'),
  ('NC(=O)NO', 'N'),
  ('CC(C)c1ccc2oc3nc(N)c(C(=O)O)cc3c(=O)c2c1', 'N'),
  ('CCOc1cc(N)c(Cl)cc1C(=O)NCC1CN(Cc2ccc(F)cc2)CCO1 (stereo unspecified)', 'N'),
  ('Cc1ccc(NC(=O)c2ccc(CN3CCN(C)CC3)cc2)cc1Nc1nccc(-c2cccnc2)n1', 'Y'),
  ('O=c1c(O)c(-c2ccc(O)c(O)c2)oc2cc(O)cc(O)c12', 'N'),
  ('CCC1=C(C)CN(C(=O)NCCc2ccc(S(=O)(=O)NC(=O)NC3CCC(C)CC3)cc2)C1=O (stereo unspecified)', 'N'),
  ('CC(C)(C#N)c1cc(Cn2cncn2)cc(C(C)(C)C#N)c1', 'N'),
  ('Cc1ccccc1N1C(=O)c2cc(S(N)(=O)=O)c(Cl)cc2NC1C (stereo unspecified)', 'N'),
  ('COc1ccc(C(=O)CC(=O)c2ccc(C(C)(C)C)cc2)cc1', 'N'),
  ('O=C(O)CCNC(=O)c1ccc(N=Nc2ccc(O)c(C(=O)O)c2)cc1', 'N'),
  ('Cc1cnc(NC(=O)C2=C(O)c3ccccc3S(=O)(=O)N2C)s1', 'N'),
  ('CC(C)NCC(O)COc1ccc(CCOCC2CC2)cc1 (stereo unspecified)', 'N'),
  ('N[C@@H](Cc1ccc(O)c(O)c1)C(=O)O', 'N'),
  ('COC(=O)Nc1nc2ccc(Sc3ccccc3)cc2[nH]1', 'Y'),
  ('O=C(O)/C=C/c1ccc(Cn2ccnc2)cc1', 'N'),
  ('CCCOc1ccc2nc(NC(=O)OC)[nH]c2c1', 'Y'),
  ('Nc1nc(=S)c2[nH]cnc2[nH]1', 'Y'),
  ('NS(=O)(=O)c1cc2c(cc1Cl)NC(C(Cl)Cl)NS2(=O)=O (stereo unspecified)', 'N'),
  ('Cc1nc(-c2ccc(OCC(C)C)c(C#N)c2)sc1C(=O)O', 'N'),
  ('S=P(N1CC1)(N1CC1)N1CC1', 'N'),
  ('Cc1ccsc1C(=CCCN1CCC[C@@H](C(=O)O)C1)c1sccc1C', 'N'),
  ('Nc1nc2c(ncn2COC(CO)CO)c(=O)[nH]1', 'N'),
  ('NC(CO)C(=O)NNCc1ccc(O)c(O)c1O (stereo unspecified)', 'N'),
  ('Cc1[nH]c(=O)c(C#N)cc1-c1ccncc1', 'N'),
  ('Cn1c(NCCN(CCO)CCCc2ccc([N+](=O)[O-])cc2)cc(=O)n(C)c1=O', 'N'),
  ('Nc1nnc(-c2cccc(Cl)c2Cl)c(N)n1', 'N');
